- experimental-system: Ctp expressed in isolation with a His6-SUMO tag (for ITC) (Drosophila melanogaster, UniProt Q24117 1-89)
- Sequence (Q24117 whole entry): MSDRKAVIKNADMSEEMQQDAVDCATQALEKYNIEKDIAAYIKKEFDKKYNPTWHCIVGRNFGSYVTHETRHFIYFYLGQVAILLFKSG
- experimental-details: ITC
pKd: −log10 of the molar value.
Measured pKd by item

• RTATRDAGTQVRLE [Panx peptide residues 467–480 (Panx2)] = ~6.85

pKd for TLYKNAATQTER [Panx peptide residues 455–466 (Panx1)] is ~7.12
